Measured pIC50, listed per entry.
Biological target: UniProtKB P18031
Sequence (P18031 whole entry): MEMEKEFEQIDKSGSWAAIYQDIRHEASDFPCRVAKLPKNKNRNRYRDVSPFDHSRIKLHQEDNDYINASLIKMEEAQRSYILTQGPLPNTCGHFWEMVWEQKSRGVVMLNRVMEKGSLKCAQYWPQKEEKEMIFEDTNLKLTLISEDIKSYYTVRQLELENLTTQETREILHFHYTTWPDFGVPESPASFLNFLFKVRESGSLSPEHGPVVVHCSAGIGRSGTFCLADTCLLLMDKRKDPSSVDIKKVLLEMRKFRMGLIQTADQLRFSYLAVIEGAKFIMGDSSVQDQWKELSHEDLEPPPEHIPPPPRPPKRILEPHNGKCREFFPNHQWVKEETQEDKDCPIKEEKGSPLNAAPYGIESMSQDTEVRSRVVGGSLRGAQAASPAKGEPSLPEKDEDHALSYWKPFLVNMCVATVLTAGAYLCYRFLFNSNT
Kindly note that pIC50 refers to -log10 of the concentration in mol/L and answer with the value alone.

C[C@@H]1O[C@@H](OC[C@H]2O[C@@H](Oc3cc(O)c4c(c3)O[C@H](c3ccc(O)cc3)CC4=O)[C@H](O)[C@@H](O)[C@@H]2O)[C@H](O)[C@H](O)[C@H]1O : 4.25

Form field pIC50, entry O=C1C[C@@H](c2ccc(O)cc2)Oc2cc(O)cc(O)c21 : 3.89
